These entries and their values trace back to paper PMC3954503.

Answer each item with its documented weaker binding / decrease in affinity relative to dimers 4 and 5.
Tested on: HIV-1 FSS RNA upper stem-loop
Test: SPR binding to immobilized HIV-1 FSS RNA upper stem-loop
Conditions: SPR KD ratio
Numbers only here, please. The scale is fold.

*Q* Find the measured weaker binding / decrease in affinity relative to dimers 4 and 5: item CCc1nc2cc3ccccc3cc2cc1C(=O)N[C@@H](C/C=C/C[C@H](N)C(=O)N1CCC[C@H]1C(=O)N[C@@H](Cc1ccccc1)C(=O)NCCCN)C(=O)N1CCC[C@H]1C(=O)N[C@@H](Cc1ccccc1)C(=O)NCCCN [Compound 8] , target or system HIV-1 FSS RNA upper stem-loop.
*A* 30

*Q* Same again, this time with C=CC[C@H](NC(=O)c1cc2cc3ccccc3cc2nc1CC)C(=O)N1CCC[C@H]1C(=O)N[C@@H](Cc1ccccc1)C(=O)NCCCN [Compound 6]
*A* 200
